Ref: the nanobody polyreactivity screen of Harvey et al. (2022)

Experiment: yeast display, Sf9 membrane polyspecificity reagent, FACS + sequencing; frameworks hold sequencing errors
property: polyreactivity (PSR sort gate)

Some solved entries appear below for comparison.
[
  {
    "sequenceInput": "QVQLVESGGGLVQAGGSLRLSCADSGLTFGSNGMGWYRQAPGKERELVAAISRGGSTSYAVSVKGRFTISRDNAKNTVYLQMNSLKPEDTAVYYCAARSYRYSYRYRAFDYWGQGSQVTVSS",
    "property": "polyreactivity (PSR sort gate)",
    "observedResult": "high polyreactivity"
  },
  {
    "sequenceInput": "QVQLVESGGGLVQAGGSLRLSSAASGRTFGWNSMGWYRHAPGKERELVAAISRTGNTYYADSVKGRFTISRDNAKNTVYLQMNSLKPEDTAVYYCAKGRYYTPTYFRGVDLYDYWGQGTQVTVSS",
    "property": "polyreactivity (PSR sort gate)",
    "observedResult": "low polyreactivity"
  },
  {
    "sequenceInput": "QVQLVESGGGLFQAGGSLRLSCAASGFTFIYYAMGSYRQAPGKATELVSAITHSGGSTYYADSVKGRFTISRDNAKTTVSLQMNSLNPEDTAVYYCAARLTWSRYQKYRTSSWQSYYWGQGTQVTVSS",
    "property": "polyreactivity (PSR sort gate)",
    "observedResult": "high polyreactivity"
  },
  {
    "sequenceInput": "QVQLVESGGGLVQAGGSLRLTCAASGIIFGHYAMGWYRQAPGKERELVAAITASSGNTYYADSVKGRFTISRDNAKNTVYLQMNSLKPEDTAVYYCAAVSYSSYRYDYWGQGTQVTVSS",
    "property": "polyreactivity (PSR sort gate)",
    "observedResult": "high polyreactivity"
  },
  {
    "sequenceInput": "QVQLVESGGGLVQAGGSLRLSCAASGRIFKSDGMGWYREAPGKERELVATISSSGDSTYYADSVKGRFTISRDNAKNTVYLQMNSLKPDDTAVYHCAKRARYKFGYWGQGTQVTVSS",
    "property": "polyreactivity (PSR sort gate)",
    "observedResult": "high polyreactivity"
  },
  {
    "sequenceInput": "QVQLVESGGGLVQAGGSLRLSCAASGSIFYRYAMGWYRQAPGKERELVAVISTGGSTYYADSVKGRFTISRDNAKNTVYLQMNSLKPEDTAVYYCNVLYYSRYAPYGRYGYWGQGTQVTVSS",
    "property": "polyreactivity (PSR sort gate)",
    "observedResult": "high polyreactivity"
  }
]

Please indicate polyreactivity (PSR sort gate) recorded for QVQLQESGSGLVQAGGSLRLSCAASGAIFPAYLMGWYRQPPGKERELVAGISYGSITYCADSVKGRFNISRDNAKNTVYLQMNSLKPEDTAVYYCAVWRPGGDEYYYWGQGTQVTVSS low polyreactivity

Please report polyreactivity (PSR sort gate) for the following sequence: QVQLVESGGGLVQAGGSLRLSCAASGRTFAPYAMGWYRQAPGKERELVAGITYRTGNTYYADSVKGRFTISRDNAKNTVYLQMNTLKPEDTGVYYCAAYSGYYRPRYNYWGQGTQVTVSS high polyreactivity

// fetch polyreactivity (PSR sort gate) given entry QVQLVESGGGLVQAGGSLRLSCAASGSIFGSNAMGWYRQARGKERELVASISKRGGSTYYADSVKGRFTISRDNAKNTVYVQMNSLKPEDTAVYSCAARSYYNGKISRVGYWGQGTQVTVSS high polyreactivity
